- study.target: T1, human neonatal Fc receptor (hFcRn) (human, UniProt P55899 24-290; P61769 21-119)
- T1 construct: Biotinylated in the ELISA, Octet and yeast assays; also called human FcRn; huFcRn
- T1 sequence (P55899 24-290 limits assumed, chain 1 of 2): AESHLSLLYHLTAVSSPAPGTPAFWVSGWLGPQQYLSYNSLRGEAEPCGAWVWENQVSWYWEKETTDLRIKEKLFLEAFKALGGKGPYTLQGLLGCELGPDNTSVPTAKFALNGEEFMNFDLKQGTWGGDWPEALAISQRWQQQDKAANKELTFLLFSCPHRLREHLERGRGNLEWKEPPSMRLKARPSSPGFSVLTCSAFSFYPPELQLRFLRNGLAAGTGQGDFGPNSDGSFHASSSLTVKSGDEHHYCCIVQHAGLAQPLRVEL
- T1 sequence (P61769 21-119 limits assumed, chain 2 of 2): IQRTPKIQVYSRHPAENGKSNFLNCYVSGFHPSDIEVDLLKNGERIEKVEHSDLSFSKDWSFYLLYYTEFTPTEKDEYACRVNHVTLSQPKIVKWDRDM
- experiment: SPR competition pH 5.5
endpoint.label: pEC50
# log scale: pEC50 equals minus log10 of the concentration in mol/L

Here is how some binders turned out for pEC50.
binder	pEC50
variant Fc-fragment Fc-5-106-M4G (other) EPKSCDKTHTCPPCPAPELLGGPSVFLFPPKPKDTLMISRTPEVTCVVVDVSHEDPEVKFNWYVDGVEVHNAKTKPREEQYNSTYRVVSVLTVLHQDWLNGKEYKCKVSNKALPAPIEKTISKAKGQPREPQVYTLPPSRDELTKNQVSLTCLVKGFYPSDIAVEWESNGGCVFNGFNCGGGQPENNYKTTPPVLDSDGSFFLYSKLTVDKSRWQQGNVFSCSVMHEALHNHYTQKSLSLSPGK	7.00
variant Fc-fragment Fc-5-106-M4N (other) EPKSCDKTHTCPPCPAPELLGGPSVFLFPPKPKDTLMISRTPEVTCVVVDVSHEDPEVKFNWYVDGVEVHNAKTKPREEQYNSTYRVVSVLTVLHQDWLNGKEYKCKVSNKALPAPIEKTISKAKGQPREPQVYTLPPSRDELTKNQVSLTCLVKGFYPSDIAVEWESNGGCVFNNFNCGGGQPENNYKTTPPVLDSDGSFFLYSKLTVDKSRWQQGNVFSCSVMHEALHNHYTQKSLSLSPGK	7.00

Kindly review the next binder as well.
Query :: Given the entry variant Fc-fragment Fc-5-106-M4H (other) EPKSCDKTHTCPPCPAPELLGGPSVFLFPPKPKDTLMISRTPEVTCVVVDVSHEDPEVKFNWYVDGVEVHNAKTKPREEQYNSTYRVVSVLTVLHQDWLNGKEYKCKVSNKALPAPIEKTISKAKGQPREPQVYTLPPSRDELTKNQVSLTCLVKGFYPSDIAVEWESNGGCVFNHFNCGGGQPENNYKTTPPVLDSDGSFFLYSKLTVDKSRWQQGNVFSCSVMHEALHNHYTQKSLSLSPGK , report its measured pEC50.
Result :: 7.00
